# test.system: T1, human CD112R on Jurkat CD112R effector cells (human, UniProt Q6DKI7 1-326)
# T1 sequence (looked up): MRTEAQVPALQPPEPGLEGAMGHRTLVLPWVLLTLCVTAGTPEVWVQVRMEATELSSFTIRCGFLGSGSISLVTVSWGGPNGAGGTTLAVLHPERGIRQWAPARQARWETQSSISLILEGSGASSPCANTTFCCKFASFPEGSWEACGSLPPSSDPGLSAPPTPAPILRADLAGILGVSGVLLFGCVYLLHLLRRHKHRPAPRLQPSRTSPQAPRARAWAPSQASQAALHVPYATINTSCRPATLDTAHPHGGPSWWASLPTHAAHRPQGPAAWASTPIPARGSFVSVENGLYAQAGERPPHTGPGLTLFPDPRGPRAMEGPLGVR
# test.protocol: cell-based or functional assay
quantity.name: EC50, CD112R/CD112 reporter
Value and unit, in that order.

binder	result
Hu57 (antibody, IgG4, V domains shown, humanized IgG4) VH: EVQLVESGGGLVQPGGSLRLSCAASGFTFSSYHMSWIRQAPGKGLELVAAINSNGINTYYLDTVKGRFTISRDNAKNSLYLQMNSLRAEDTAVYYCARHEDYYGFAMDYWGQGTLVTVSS VL: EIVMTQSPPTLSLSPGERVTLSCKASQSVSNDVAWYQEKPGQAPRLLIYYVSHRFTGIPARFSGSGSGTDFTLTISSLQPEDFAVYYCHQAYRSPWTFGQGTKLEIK	1.33 µg/mL

Exercise: Report measured EC50, CD112R/CD112 reporter; entry is Hu40 (antibody, IgG4, V domains shown) VH: EVQLVESGGGLVQPGGSLRLSCAASGFTFSSYHMSWVRQAPGKGLELVSAINSNVISTYYLDTVKGRFTISRDNAKNSLYLQMNSLRAEDTAVYYCARHEDYYGFAMDYWGQGTLVTVSS VL: DIVMTQSPDSLAVSLGERATINCKASQSVSNDVAWYQQKPGQPPKLLIYYVSHRFTGVPDRFSGSGSGTDFTLTISSLQAEDVAVYFCHQAYRSPWTFGQGTKLEIK
Solution: 0.0242 µg/mL
